The reported measurements were obtained from ChEMBL document CHEMBL2429786.

method description: Intrinsic clearance in human liver microsomes at 1 to 5 uM by HPLC-MS analysis
Format: ADME, Microsome
measurement context: read-out: CLH
Parameter: CLint scaled at up to 5 µM. Scope: all listed entries.
reported metric: CLint scaled at up to 5 µM (mL/min/kg)

compound	reported metric	measured result
Cl.O=C1C2CCCN2C(=O)N1CCCCNCCOc1cccc2ccccc12 (stereo not given)	CLint scaled at up to 5 µM	5.1
COc1ccccc1OCCNCCCCN1C(=O)C2CCCN2C1=O.Cl (stereo not given)	CLint scaled at up to 5 µM	2.6
CCc1ccccc1OCCNCCCCN1C(=O)C2CCCN2C1=O.Cl (stereo not given)	CLint scaled at up to 5 µM	4.6
Cl.O=C1C2CCCN2C(=O)N1CCCCNCCOc1ccccc1 (stereo not given)	CLint scaled at up to 5 µM	4.1
CCOc1ccccc1OCCNCCCCN1C(=O)C2CCCN2C1=O.Cl (stereo not given)	CLint scaled at up to 5 µM	3.5

----------
tested target: CYP2D6 (Homo sapiens, UniProt P10635)
Sequence (P10635 whole entry): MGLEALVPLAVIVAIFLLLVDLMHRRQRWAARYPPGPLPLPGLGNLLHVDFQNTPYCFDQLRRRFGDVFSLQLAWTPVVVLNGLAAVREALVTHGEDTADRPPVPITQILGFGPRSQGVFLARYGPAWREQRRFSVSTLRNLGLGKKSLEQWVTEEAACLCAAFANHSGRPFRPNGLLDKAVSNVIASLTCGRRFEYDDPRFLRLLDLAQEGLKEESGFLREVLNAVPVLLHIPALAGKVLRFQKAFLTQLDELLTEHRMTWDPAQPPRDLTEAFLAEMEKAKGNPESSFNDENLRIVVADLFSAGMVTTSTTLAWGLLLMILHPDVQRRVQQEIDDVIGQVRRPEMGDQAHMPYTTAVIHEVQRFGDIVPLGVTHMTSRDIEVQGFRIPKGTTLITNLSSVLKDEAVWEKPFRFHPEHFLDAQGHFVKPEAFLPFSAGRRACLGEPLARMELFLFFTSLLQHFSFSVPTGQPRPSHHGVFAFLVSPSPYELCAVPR
method description: Inhibition of human recombinant microsomal CYP2D6 using {3-[2-(N,N-diethyl-N-methylamino)ethyl]-7-methoxy-4-methylcoumarin} as substrate assessed as remaining activity at 10 uM after 30 mins by spectrofluorimetric analysis relative to control
Format: ADME
measurement context: read-out: Activity
activity at 0.5 h, 10 µM vs 20%: at or above is True, below is False.

molecule	group
CCOc1ccccc1OCCNCCCCN1C(=O)C2CCCN2C1=O.Cl (stereo not given)	False
COc1ccccc1OCCNCCCCN1C(=O)C2CCCN2C1=O.Cl (stereo not given)	True
Cl.O=C1C2CCCN2C(=O)N1CCCCNCCOc1cccc2ccccc12 (stereo not given)	False
Cl.O=C1C2CCCN2C(=O)N1CCCCNCCOc1ccccc1 (stereo not given)	True
CCc1ccccc1OCCNCCCCN1C(=O)C2CCCN2C1=O.Cl (stereo not given)	False

----------
method description: Half life in Sprague-Dawley rat liver microsomes at 1 to 5 uM by HPLC-MS analysis
Type: ADME, Microsome

molecule	half-life at up to 5 µM / min
Cl.O=C1C2CCCN2C(=O)N1CCCCNCCOc1ccccc1 (stereo not given)	10
COc1ccccc1OCCNCCCCN1C(=O)C2CCCN2C1=O.Cl (stereo not given)	9.7
CCOc1ccccc1OCCNCCCCN1C(=O)C2CCCN2C1=O.Cl (stereo not given)	13.1
Cl.O=C1C2CCCN2C(=O)N1CCCCNCCOc1cccc2ccccc12 (stereo not given)	8.1
CCc1ccccc1OCCNCCCCN1C(=O)C2CCCN2C1=O.Cl (stereo not given)	10.7

----------
tested target: 5-hydroxytryptamine receptor 1A (Rattus norvegicus, UniProt P19327)
Sequence (P19327 whole entry): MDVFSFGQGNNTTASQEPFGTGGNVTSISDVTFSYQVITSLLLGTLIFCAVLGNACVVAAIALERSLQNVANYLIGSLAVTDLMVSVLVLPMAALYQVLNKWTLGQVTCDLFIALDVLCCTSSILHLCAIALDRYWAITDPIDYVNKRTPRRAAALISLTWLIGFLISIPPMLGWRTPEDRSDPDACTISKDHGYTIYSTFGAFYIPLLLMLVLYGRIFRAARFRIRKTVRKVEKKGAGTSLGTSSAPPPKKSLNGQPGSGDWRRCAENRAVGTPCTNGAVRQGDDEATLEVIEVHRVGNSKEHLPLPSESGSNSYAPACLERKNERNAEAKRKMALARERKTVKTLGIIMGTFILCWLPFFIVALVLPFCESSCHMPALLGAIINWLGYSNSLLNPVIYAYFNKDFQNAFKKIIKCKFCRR
pKi: −log10 of the molar value.

compound	pKi
N#Cc1ccccc1OCCNCCCCN1C(=O)C2CCCN2C1=O (stereo not drawn)	< 6.00
COc1ccccc1CNCCCCN1C(=O)C2CCCN2C1=O (stereo not drawn)	< 6.00
O=C1C2CCCN2C(=O)N1CCCCNCCOc1ccc(Br)cc1 (stereo not drawn)	< 6.00
O=C1C2CCCN2C(=O)N1CCCCNCCOc1ccc(-c2ccccc2)cc1 (stereo not drawn)	< 6.00
CC(C)c1ccccc1OCCNCCCCN1C(=O)C2CCCN2C1=O (stereo not drawn)	7.42
COc1ccc(OCCNCCCCN2C(=O)C3CCCN3C2=O)cc1 (stereo not drawn)	< 6.00
COc1ccc(OCCNCCCCN2C(=O)C3CCCN3C2=O)c2ccccc12 (stereo not drawn)	7.57
COc1cc(F)ccc1OCCNCCCCN1C(=O)C2CCCN2C1=O (stereo not drawn)	7.43

----------
Reported Ki for target or system 5-hydroxytryptamine receptor 1A (Rattus norvegicus), by entry.

compound	relation	Ki [nM]
O=C1C2CCCN2C(=O)N1CCCCNCCOc1ccccc1C(F)(F)F (stereo unspecified)	=	510
N#Cc1ccc(OCCNCCCCN2C(=O)C3CCCN3C2=O)cc1 (stereo unspecified)	>	1000
N#Cc1cccc(OCCNCCCCN2C(=O)C3CCCN3C2=O)c1 (stereo unspecified)	>	1000
O=C1C2CCCN2C(=O)N1CCCCNCCOc1ccc(C(F)(F)F)cc1 (stereo unspecified)	>	1000
O=C1C2CCCN2C(=O)N1CCCCNCCOc1cccc2c1CCCC2 (stereo unspecified)	=	38
O=C1C2CCCN2C(=O)N1CCCCNCCOc1cccc(C(F)(F)F)c1 (stereo unspecified)	=	38.9

----------
Consider the following Ki values measured on 5-hydroxytryptamine receptor 2A (Rattus norvegicus, UniProt P14842).
Sequence (P14842 whole entry): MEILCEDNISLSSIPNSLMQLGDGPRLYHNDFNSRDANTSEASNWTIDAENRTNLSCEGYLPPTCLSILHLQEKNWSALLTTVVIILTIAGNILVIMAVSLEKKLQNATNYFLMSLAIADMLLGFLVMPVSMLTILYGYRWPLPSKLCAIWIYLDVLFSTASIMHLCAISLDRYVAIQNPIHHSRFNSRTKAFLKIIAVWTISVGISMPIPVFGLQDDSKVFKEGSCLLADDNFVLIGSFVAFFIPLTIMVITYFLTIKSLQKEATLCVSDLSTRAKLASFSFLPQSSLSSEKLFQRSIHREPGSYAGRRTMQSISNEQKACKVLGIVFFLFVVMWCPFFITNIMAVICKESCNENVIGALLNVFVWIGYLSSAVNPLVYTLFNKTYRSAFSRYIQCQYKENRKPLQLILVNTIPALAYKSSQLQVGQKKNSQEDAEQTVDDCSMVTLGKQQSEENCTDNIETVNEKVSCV
reported metric: Ki

compound	measured result
CCc1cccc(OCCNCCCCN2C(=O)C3CCCN3C2=O)c1 (stereo not drawn)	> 1000 nM
COc1ccccc1OCCNCCCCN1C(=O)C2CCCN2C1=O.Cl (stereo not drawn)	267 nM
O=C1C2CCCN2C(=O)N1CCCCNCCOc1cccc2c1CCCC2 (stereo not drawn)	49 nM

----------
tested target: 5-hydroxytryptamine receptor 7 (Rattus norvegicus)
Sequence (P32305 whole entry): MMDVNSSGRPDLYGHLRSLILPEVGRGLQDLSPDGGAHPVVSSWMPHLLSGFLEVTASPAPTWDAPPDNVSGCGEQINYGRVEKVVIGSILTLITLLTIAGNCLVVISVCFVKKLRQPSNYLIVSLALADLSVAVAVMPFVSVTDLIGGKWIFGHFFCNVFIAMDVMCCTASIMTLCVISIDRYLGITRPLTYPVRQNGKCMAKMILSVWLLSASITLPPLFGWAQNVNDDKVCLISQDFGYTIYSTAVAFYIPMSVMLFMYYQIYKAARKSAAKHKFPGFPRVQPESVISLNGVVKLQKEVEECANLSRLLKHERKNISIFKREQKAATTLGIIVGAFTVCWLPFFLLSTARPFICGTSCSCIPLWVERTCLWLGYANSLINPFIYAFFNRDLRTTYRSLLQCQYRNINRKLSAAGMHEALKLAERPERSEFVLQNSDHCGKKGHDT
pKi: −log10 of the molar value.
// reported pKi for each item listed

compound	tested target	relation	pKi
CCc1ccccc1OCCNCCCCN1C(=O)C2CCCN2C1=O.Cl (stereo not given)	5-hydroxytryptamine receptor 7 (Rattus norvegicus)	=	6.73
CC(C)c1ccccc1OCCNCCCCN1C(=O)C2CCCN2C1=O (stereo not given)	5-hydroxytryptamine receptor 7 (Rattus norvegicus)	<	6.00
NCCc1c[nH]c2ccc(C(N)=O)cc12	5-hydroxytryptamine receptor 7 (Rattus norvegicus)	=	8.74
Cl.O=C1C2CCCN2C(=O)N1CCCCNCCOc1ccccc1 (stereo not given)	5-hydroxytryptamine receptor 7 (Rattus norvegicus)	<	6.00
O=C1C2CCCN2C(=O)N1CCCCNCCOc1cccc(Br)c1 (stereo not given)	5-hydroxytryptamine receptor 7 (Rattus norvegicus)	<	6.00

----------
tested target: Albumin (Homo sapiens, UniProt P02768)
Sequence (P02768 whole entry): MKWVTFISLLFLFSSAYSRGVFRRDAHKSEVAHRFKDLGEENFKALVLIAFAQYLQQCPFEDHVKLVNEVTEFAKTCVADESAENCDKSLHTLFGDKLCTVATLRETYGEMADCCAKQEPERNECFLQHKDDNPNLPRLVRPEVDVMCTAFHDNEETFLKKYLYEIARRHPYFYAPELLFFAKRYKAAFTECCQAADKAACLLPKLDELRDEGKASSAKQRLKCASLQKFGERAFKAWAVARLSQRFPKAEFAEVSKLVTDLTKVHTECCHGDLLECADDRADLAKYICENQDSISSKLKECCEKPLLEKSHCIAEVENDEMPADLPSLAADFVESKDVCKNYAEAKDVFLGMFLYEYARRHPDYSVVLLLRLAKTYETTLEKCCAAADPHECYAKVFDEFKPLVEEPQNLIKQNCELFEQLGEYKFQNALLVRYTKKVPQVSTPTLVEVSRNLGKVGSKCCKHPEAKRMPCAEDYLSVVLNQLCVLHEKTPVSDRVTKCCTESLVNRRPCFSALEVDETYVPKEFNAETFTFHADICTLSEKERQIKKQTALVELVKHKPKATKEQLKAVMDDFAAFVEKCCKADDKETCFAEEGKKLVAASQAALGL
method description: Binding affinity to human serum albumin at 5 uM after 12 mins by HPLC-MS analysis relative to control
Format: ADME
measurement context: isolated protein, 0.2 h

compound	Activity
CCOc1ccccc1OCCNCCCCN1C(=O)C2CCCN2C1=O.Cl (stereo not given)	25%
CCc1ccccc1OCCNCCCCN1C(=O)C2CCCN2C1=O.Cl (stereo not given)	55%
COc1ccccc1OCCNCCCCN1C(=O)C2CCCN2C1=O.Cl (stereo not given)	25%
Cl.O=C1C2CCCN2C(=O)N1CCCCNCCOc1ccccc1 (stereo not given)	38%
Cl.O=C1C2CCCN2C(=O)N1CCCCNCCOc1cccc2ccccc12 (stereo not given)	60%
